Target: BRD4-1 (Homo sapiens)
Construct: made in house; host or cells: Escherichia coli
Test: BRD4-1 Ligand KI assay (TR-FRET displacement of Cy5 labeled probe)
Format: binding
Conditions: 10 nM labeled ligand, 2 nM BRD4-1; Ki from IC50 by Cheng and Prusoff; read-out: BRD4-1 Ligand K1
measure: pKi
# log scale: pKi equals minus log10 of the concentration in mol/L

Solved cases below.
{"compound": "Cc1noc(C)c1-c1cc(C(O)(c2ccc(F)cn2)c2cc(F)ccc2F)c2[nH]c(=O)[nH]c2c1 (centres unmarked) [Example 41]", "pKi": 7.89}
{"compound": "Cc1noc(C)c1-c1cc(C(O)(c2ccccn2)c2ccccn2)c2[nH]c(=O)[nH]c2c1F [Example 169]", "pKi": 7.21}
{"compound": "Cc1noc(C)c1-c1cc(C(O)(c2ccc(F)cn2)c2c(F)cccc2F)c2[nH]c(=O)[nH]c2c1 (centres unmarked) [Example 38]", "pKi": 8.11}
{"compound": "Cc1noc(C)c1-c1cc(-c2c(C3CC3)n[nH]c2C2CC2)c2[nH]c(=O)[nH]c2c1 [Example 23]", "pKi": 7.89}
{"compound": "Cc1noc(C)c1-c1cc(C(O)(c2ccccn2)C2CCCCC2)c2[nH]c(=O)[nH]c2c1 (centres unmarked) [Example 144]", "pKi": 8.11}
{"compound": "Cc1noc(C)c1-c1cc(C(O)(c2cnccn2)c2c(F)cccc2F)c2[nH]c(=O)[nH]c2c1 (centres unmarked) [Example 49]", "pKi": 8.09}
{"compound": "Cc1noc(C)c1-c1cc(C(O)(CC(C)(C)C)c2ccccn2)c2[nH]c(=O)[nH]c2c1 (centres unmarked) [Example 143]", "pKi": 7.53}

Input: Supply reported pKi belonging to this compound: Cc1noc(C)c1-c1cc(C(O)(c2ccc(Cl)cn2)c2ccc(Cl)cn2)c2[nH]c(=O)[nH]c2c1 [Example 55]
Output: 7.84
